Molecular target: Kdn(a2-3)Gal(b1-4)GlcNAc
Assay: glycan array binding signal (z-score within array); higher = stronger binding
Conditions: glycan notation: IUPAC condensed, linker removed
About 410 targets per protein were measured; listed, in parts, are those with the strongest signals and a random draw of the rest.
Label scheme for glycan array binding signal (z-score): lower than -0.07 is F, -0.07 and above is T.

binder	discrete_label
SEX4 (Arabidopsis thaliana), Q944A8 (protein) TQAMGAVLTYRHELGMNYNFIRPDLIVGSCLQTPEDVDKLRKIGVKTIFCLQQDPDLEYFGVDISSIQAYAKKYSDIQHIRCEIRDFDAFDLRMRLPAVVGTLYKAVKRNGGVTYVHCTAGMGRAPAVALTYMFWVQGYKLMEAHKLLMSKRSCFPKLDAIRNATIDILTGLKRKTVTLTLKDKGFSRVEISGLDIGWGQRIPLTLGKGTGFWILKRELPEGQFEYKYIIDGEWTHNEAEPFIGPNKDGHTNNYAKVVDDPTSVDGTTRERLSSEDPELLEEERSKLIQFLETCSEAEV	T
BDCA2 ex-domain (Homo sapiens) (protein) MASHHHHHHIEGRGLNDIFEAQKIEWHESLVPRGSCPTPWTSFQSSCYFISTGMQSWTKSQKNCSVMGADLVVINTREEQDFIIQNLKRNSSYFLGLSDPGGRRHWQWVDQTPYNENVTFWHSGEPNNLDERCAIINFRSSEEWGWNDIHCHVPQKSICKMKKIY	T
CLEC7A (Homo sapiens), Q9BXN2 (protein) MEYHPDLENLDEDGYTQLHFDSQSNTRIAVVSEKGSCAASPPWRLIAVILGILCLVILVIAVVLGTMAIWRSNSGSNTLENGYFLSRNKENHSQPTQSSLEDSVTPTKAVKTTGVLSSPCPPNWIIYEKSCYLFSMSLNSWDGSKRQCWQLGSNLLKIDSSNELGFIVKQVSSQPDNSFWIGLSRPQTEVPWLWEDGSTFSSNLFQIRTTATQENPSPNCVWIHVSVIYDQLCSVPSYSICEKKFSM	T
CPA (Cicer arietinum) (protein) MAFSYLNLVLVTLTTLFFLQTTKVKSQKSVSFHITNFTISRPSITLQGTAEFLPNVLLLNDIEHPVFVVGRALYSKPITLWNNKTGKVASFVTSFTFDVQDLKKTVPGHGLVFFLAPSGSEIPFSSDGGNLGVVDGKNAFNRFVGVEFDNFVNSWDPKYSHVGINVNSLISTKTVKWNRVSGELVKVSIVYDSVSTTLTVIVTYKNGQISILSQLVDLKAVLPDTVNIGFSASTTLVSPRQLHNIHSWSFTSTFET	F
DC-ASGPR L+GEE (Homo sapiens) (protein) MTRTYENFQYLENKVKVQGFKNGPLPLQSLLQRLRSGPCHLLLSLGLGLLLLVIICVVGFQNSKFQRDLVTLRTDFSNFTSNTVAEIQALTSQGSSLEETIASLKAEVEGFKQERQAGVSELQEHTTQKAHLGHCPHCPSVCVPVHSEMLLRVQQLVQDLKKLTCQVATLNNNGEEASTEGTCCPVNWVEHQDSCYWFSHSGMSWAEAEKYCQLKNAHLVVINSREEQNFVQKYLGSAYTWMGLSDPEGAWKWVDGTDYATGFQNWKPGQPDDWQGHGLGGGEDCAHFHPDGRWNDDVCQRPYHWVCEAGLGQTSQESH	F
CD72 ectodomain (Homo sapiens), P21854 (protein) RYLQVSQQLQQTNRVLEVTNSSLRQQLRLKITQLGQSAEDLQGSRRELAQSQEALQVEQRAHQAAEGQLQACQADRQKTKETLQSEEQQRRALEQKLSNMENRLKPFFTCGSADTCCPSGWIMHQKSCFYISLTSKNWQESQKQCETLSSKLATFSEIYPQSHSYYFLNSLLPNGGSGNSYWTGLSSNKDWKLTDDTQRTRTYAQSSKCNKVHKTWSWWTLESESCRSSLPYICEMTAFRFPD	T
XTP3-B-MRH1 (Homo sapiens), Q96DZ1 (protein) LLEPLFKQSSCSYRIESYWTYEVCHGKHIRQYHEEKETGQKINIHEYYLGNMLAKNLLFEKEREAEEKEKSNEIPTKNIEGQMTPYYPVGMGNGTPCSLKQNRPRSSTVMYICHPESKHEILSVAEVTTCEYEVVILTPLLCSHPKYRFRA	F
HPA (Helix pomatia), Q575S3 (protein) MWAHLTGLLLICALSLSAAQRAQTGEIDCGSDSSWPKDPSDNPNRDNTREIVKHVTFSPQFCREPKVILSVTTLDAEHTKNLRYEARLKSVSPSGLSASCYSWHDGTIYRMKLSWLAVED	F
HPL (Tachypleus tridentatus) (protein) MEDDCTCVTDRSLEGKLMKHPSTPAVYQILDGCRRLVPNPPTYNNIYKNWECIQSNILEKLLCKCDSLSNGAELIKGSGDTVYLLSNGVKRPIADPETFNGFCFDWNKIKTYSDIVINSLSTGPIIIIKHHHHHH	F
NKp30 (Homo sapiens), O14931 (protein) MAWMLLLILIMVHPGSCALWVSQPPEIRTLEGSSAFLPCSFNASQGRLAIGSVTWFRDEVVPGKEVRNGTPERFGRLAPLASSRFLHDHQAELHIRDVRGHDASIYVCRVEVLGLGVGTGNGTRLVVRKEHPQLGAGTHADPEAPEAEGAPSVFLFPPKPKDTLMISRTPEVTCVVVDVSHEDPEVKFNWYVDGVEVHNAKTPREEQYNSTYRVVSVLTVLHQDWLNGKEYKCKVSNKALPAPIEKTISKAKGQPREPQVYTLPPSRDELTKNQVSLTCLVKGFYPSDIAVEWESNGQPENNYKTTPPVLDSDGSFFLYSKLTVDKSRWQQGNVFSCSVMHEALHNHYTQKSLSLSPGK	F

Hey, just so you know, these numbers are from the supplement of paper PMC8728848.
